B1: PBXIP1 (parent)
chain: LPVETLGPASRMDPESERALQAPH

variants of: B1; test: protein stability index of a GFP-peptide fusion (GPS, HEK-293T) (PSI 1-6); higher = more stable; conditions: c terminus: a fixed tail appended;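 also: lentivirally expressed fusions sorted by FACS into six bins by GFP to DsRed ratio, PSI derived from sequencing read proportions per bin multiplied by bin number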
Lab note: compare protein stability index against 4. Equal or greater, write yes. Smaller, write no.

Field: example entries. Status: answers known.
Mutation Descriptor: R18E
Class Name: yes
//
Mutation Descriptor: D13T
Class Name: yes
//
Mutation Descriptor: P23G
Class Name: yes
//
Mutation Descriptor: T5G
Class Name: yes
//
Mutation Descriptor: A19P
Class Name: yes

Next, consider the following variant.
INPUT: Tell me whether protein stability index is at least 4 here: R11L
OUTPUT: no
